Read-out: serum amyloid A (SAA), SAA1 (gene 6288)
Experiment: BSK_CASM3C_SAA: BioMAP Diversity Plus: CASM3C Assay for serum amyloid A (SAA) Biomarker Activity (AID 2283049);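 further: SAA protein level quantified by ELISA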
Conditions: primary human coronary artery smooth muscle cells; actives raise or lower the signal
Calls of active or inactive are those of the source. How the source made its calls: active means hit-call score of the fitted dose curve at least 0.9, where 1 is the maximum; inactive means score below 0.9.
Outcomes: active, inactive

compound=CO[Si](OC)(c1ccccc1)c1ccccc1 classification=active
compound=O=C(O)C(F)(F)C(F)(F)C(F)(F)F classification=inactive
compound=C=C(C)C(=O)OCC(F)(F)C(F)(F)C(F)(F)C(F)(F)C(F)(F)C(F)(F)C(F)(F)F classification=inactive
compound=O=S(=O)(OCCOC(F)(F)F)C(F)(F)F classification=inactive
compound=CCCCOCCOCCOC(=O)CCCCC(=O)OCCOCCOCCCC classification=inactive
compound=FC(F)(F)C(F)(F)C(F)(F)C(F)(F)C(F)(F)CCI classification=inactive
compound=CCN(CC)c1ccc2c(C)cc(=O)oc2c1 classification=inactive
compound=O=C(Cl)C(F)(F)C(F)(F)C(F)(F)C(F)(F)C(F)(F)C(F)(F)C(F)(F)C(F)(F)F classification=inactive
compound=C=CC(F)(F)C(F)(F)C(F)(F)C(F)(F)C(F)(F)C(F)(F)C(F)(F)C(F)(F)F classification=inactive
compound=FC(F)(F)C(F)(F)CNCC(F)(F)C(F)(F)F classification=inactive
compound="FC1CC(F)(F)C(F)(F)C1(F)F (stereo unspecified)" classification=inactive

====

Read-out: Monocyte Chemoattractant Protein-1 (MCP1), CCL2 (gene 6347)
Assay: BSK_BF4T_MCP1: BioMAP Diversity Plus: BF4T Assay for Monocyte Chemoattractant Protein-1 (MCP1) Biomarker Activity (AID 2284259)
Settings: primary human bronchial epithelial cells with fibroblasts
Description: BSK_BF4T is a cell-based, multiplexed-readout assay that uses bronchial epithelial cells and dermal fibroblasts, a human vascular primary cell, with measurements taken at 24 hours after chemical dosing in a microplate: 96-well plate.BSK_BF4T_MCP1 is an assay component measured in the BSK_BF4T assay. […] The levels of cell surface (or secreted, indicated by the prefix "s") biomarker endpoints were measured by ELISA. […] Plates were read after 6 h.
Active and inactive are the calls of the source. Rule for the calls: active = hit-call score of the fitted dose curve at least 0.9, where 1 is the maximum; inactive = score below 0.9.
metric_name: outcome

substance_smiles=O=S(=O)(OCCOC(F)(F)F)C(F)(F)F metric_name=outcome value=inactive
substance_smiles=FC(F)(Br)C(F)(F)C(F)(F)C(F)(F)C(F)(F)C(F)(F)Br metric_name=outcome value=inactive
substance_smiles=COC(=O)CCC(F)(F)C(F)(F)C(F)(F)C(F)(F)F metric_name=outcome value=inactive
substance_smiles=OCC(F)(F)C(F)(F)C(F)(F)C(F)(F)C(F)(F)C(F)(F)F metric_name=outcome value=inactive
substance_smiles=O=C(O)C(F)(F)C(F)(F)C(F)(F)C(F)(F)C(F)(F)C(F)(F)C(F)(F)C(F)(F)C(F)(F)C(F)(F)C(F)(F)C(F)(F)C(F)(F)F metric_name=outcome value=inactive
substance_smiles=O=S(=O)(O)C(F)(F)C(F)(F)C(F)(F)C(F)(F)C(F)(F)C(F)(F)C(F)(F)F metric_name=outcome value=inactive
substance_smiles=FC(F)(F)C(F)(F)C(F)(F)C(F)(F)C(F)(F)CCI metric_name=outcome value=inactive
substance_smiles=C=C(C)C(=O)OCC(F)(F)C(F)(F)C(F)(F)C(F)(F)C(F)(F)C(F)(F)C(F)(F)F metric_name=outcome value=inactive
substance_smiles=C=CC(=O)OCC(F)(F)C(F)(F)C(F)(F)C(F)(F)C(F)(F)C(F)(F)C(F)(F)F metric_name=outcome value=inactive
substance_smiles=OCC(F)(F)C(F)(F)C(F)(F)C(F)F metric_name=outcome value=inactive
